Test: Lipophilicity, log P of the compound
Assay type: physicochemical
Details: octanol/water; read-out: logP
ASSAY ENDPOINT: logP
Reply briefly: the number, and no unit.

Known logP results, listed for orientation:
C=CCNC(=O)C(=O)Nc1ccc(C(C)C)cc1	2
Cc1cn[nH]c1NC=C1C(=O)c2ccccc2C1=O	1.79
O=CNc1nonc1NNc1ccccc1	0.89
COc1cc(/C=N/Cc2ccco2)ccc1O	2.07
O=[N+]([O-])c1cccc(CN2CCNCC2)c1	1.18

Which logP reading was recorded for the molecule `O=C(O)c1ccc2c(c1)-c1nc3ccccc3n1C2=O` ?
2.52

Which logP reading was recorded for the molecule `O=C(O)c1ccc2c(c1)C(=O)N(CCO)C2=O` ?
0.09

Origin of values: ChEMBL document CHEMBL3880431
